Provenance of the data: the Human Domainome abundance scans (Beltran et al. 2025)

B1: Zinc finger homeobox protein 3, residues 2147 to 2202; numbered along this chain, Q15911 (parent)
chain: RPRTRITDDQLRVLRQYFDINNSPSEEQIKEMADKSGLPQKVIKHWFRNTLFKERQ

Variants of: B1
Assay: abundance fitness (aPCA) (normalised: wild type 0, dead -1); higher = more abundant; growth selection in yeast, the domain comes from the species named
Details: Homo sapiens
abundance fitness values, listed per item
Lab note: jot down the number only; don't add units.

Some variants with known abundance fitness results, for comparison:
T4P | -0.159
E31P | -1.03
P39M | -0.258
I43S | -0.987
D19L | 0.032
V42L | -0.103
E31Y | -0.448
L51S | 0.015

stdin: # get_value(readout='abundance fitness', item= P24F )
stdout: -0.746

stdin: # get_value(readout='abundance fitness', item= N22D )
stdout: -0.189

stdin: # get_value(readout='abundance fitness', item= A33M )
stdout: -0.083
